# Test system: chick chorioallantoic membrane (CAM) blood vessel branching
# assay protocol: Chorioallantoic membrane (CAM) model of angiogenesis
# Type: in vivo
# details: FGF (1.25 μg/ml) + Tetrac or analog at 10 μg/plug

[
  {
    "compound": "O=C(Cc1cc(I)c(Oc2cc(I)c(O)c(I)c2)c(I)c1)NC1CCCCC1",
    "Mean % Inhibition / %": 15
  },
  {
    "compound": "O=C(O)Cc1cc(I)c(Oc2cc(I)c(O)c(I)c2)c(I)c1",
    "Mean % Inhibition / %": 85
  },
  {
    "compound": "CC(C)[Si](OC(=O)Cc1cc(I)c(Oc2cc(I)c(O)c(I)c2)c(I)c1)(C(C)C)C(C)C",
    "Mean % Inhibition / %": 75
  },
  {
    "compound": "CC(C)[Si](OC(=O)C(Cc1cc(I)c(Oc2cc(I)c(O)c(I)c2)c(I)c1)NC(=O)OC(C)(C)C)(C(C)C)C(C)C (stereo not shown)",
    "Mean % Inhibition / %": 44
  }
]
